Test system: L6 rat skeletal myoblasts
Assay: Cytotoxicity against mammalian control cells
Type: cell-based
Procedure: After isolation, all alkaloids were tested in vitro for antiplasmodial and antitrypanosomal activity against Plasmodium falciparum (Pf) and Trypanosoma brucei rhodesiense (Tbr). Furthermore, to assess their selectivity against the parasites, cytotoxicity against L6 rat skeletal myoblasts, as mammalian control cells, was tested (Table 4). […]
measured metric: IC50
Don't forget the unit after the number, please.

Challenge: I have this compound here, CN[C@@H](C)[C@H]1[C@H](O)C[C@@]2(C)[C@@H]3C=C[C@H]4C(C)(C)[C@@H](N(C)C)CC[C@@]45C[C@@]35CC[C@]12C , and I need its recorded IC50.
Response given: 35.5 µM

----------
Measured Cytotox. IC50 of individual entries
tested on: L6 rat skeletal myoblasts; assay: Cytotoxicity against mammalian control cells; type: cell-based; conditions: L6 cell line; mean of n = 2 (fluctuation range) or * n = 3 (SD)
Reply numerically in µg/mL, unit not repeated.

CC(C1C(O)CC2(C)C3C=CC4C(C)(CO)C(N(C)C)CCC45CC35CCC12C)N(C)C (stereo not shown) [Compound 5, Cyclomicrophylline-A]
44

Challenge: I have this molecule here, CC(=O)N[C@@H](C)[C@H]1CC[C@@]2(C)[C@@H]3CC[C@@H]4C(=CC3=CC[C@]12C)CC[C@H](N(C)C)C4(C)C [Compound 21, N20-acetylbuxamine-E] , and I need its recorded Cytotox. IC50.
Response given: 54.8

Challenge: I have this molecule here, CC(=O)O[C@@H]1C[C@@]2(C)[C@@H]3CC[C@@H]4C(=CC3=CC[C@]2(C)[C@H]1[C@H](C)NC(=O)c1ccccc1)CC[C@H](N(C)C)C4(C)C [Compound 22, N-benzoyl-O-acetylbuxodienine-E] , and I need its recorded Cytotox. IC50.
Response given: 8.5

Challenge: I have this molecule here, CC(=O)OC[C@]1(C)[C@@H](NC(=O)c2ccccc2)CC[C@]23C[C@]24C(=O)C[C@]2(C)[C@@H]([C@H](C)N(C)C)CC[C@@]2(C)[C@@H]4CC[C@@H]13 [Compound 9, N-benzoyl-O-acetyl-cycloxo-buxoline-F] , and I need its recorded Cytotox. IC50.
Response given: 41

----------
system: Trypanosoma brucei rhodesiense (Tbr) (bloodstream trypomastigotes, STIB 900 strain); assay: In vitro antitrypanosomal activity; assay type: cell-based; conditions: Trypanosoma brucei; STIB 900 strain; read-out: Tbr IC50 (in parentheses) (converted)
measured metric: log10 IC50 (log10 of the value in µM)
The figures below represent log10 of IC50, where IC50 is stated in µM.

Examples with their reported log10 IC50 follow.
CN[C@@H](C)[C@H]1[C@H](OC(=O)c2ccccc2)C[C@@]2(C)[C@@H]3C=C[C@H]4[C@](C)(CO)[C@@H](N(C)C)CC[C@@]45C[C@@]35CC[C@]12C [Compound 7, Cyclomicrophyllidine-B]
0.56
CN[C@H]1CC=C2CC3=CC[C@]4(C)[C@@H]([C@H](C)NC(C)=O)CC[C@@]4(C)[C@@H]3CC[C@H]2C1(C)C [Compound 24, N20-acetylbuxadine-G]
0.11
CN[C@@H](C)[C@H]1CC[C@@]2(C)[C@@H]3CC[C@H]4C(C)(C)[C@@H](NC)[C@H](OC(=O)c5ccccc5)C[C@@]45C[C@@]35CC[C@]12C [Compound 8, O-benzoyl-cycloprotobuxoline-D]
0.04
CC(=O)O[C@@H]1C[C@@]2(C)[C@@H]3CC[C@@H]4C(=CC[C@H](N(C)C)C4(C)C)CC3=CC[C@]2(C)[C@H]1[C@H](C)NC(=O)c1ccccc1 [Compound 23, N-benzoyl-O-acetylbuxadine-E]
0.76

Attention now shifts to the item below.
Challenge: Form entry - test system: Trypanosoma brucei rhodesiense (Tbr) (bloodstream trypomastigotes, STIB 900 strain); read-out: log10 IC50; compound: C=C1C2CC[C@@H]3[C@]4(CC[C@]5(C)[C@@H](C(C)=O)[C@H](O)C[C@@]35C)C[C@]24CC[C@@H]1NC (some centres unmarked) [Compound 17, Cyclomicrobuxinine]
Response given: 2.11
